- assay_target: serotonin 5-HT2 receptors (Rattus norvegicus)
- Construct: Rat cortical synaptosomal membranes were prepared on the day of assay; from tissue; host or cells: rat frontal cortex synaptosomal membranes
- Sequence (P14842 whole entry): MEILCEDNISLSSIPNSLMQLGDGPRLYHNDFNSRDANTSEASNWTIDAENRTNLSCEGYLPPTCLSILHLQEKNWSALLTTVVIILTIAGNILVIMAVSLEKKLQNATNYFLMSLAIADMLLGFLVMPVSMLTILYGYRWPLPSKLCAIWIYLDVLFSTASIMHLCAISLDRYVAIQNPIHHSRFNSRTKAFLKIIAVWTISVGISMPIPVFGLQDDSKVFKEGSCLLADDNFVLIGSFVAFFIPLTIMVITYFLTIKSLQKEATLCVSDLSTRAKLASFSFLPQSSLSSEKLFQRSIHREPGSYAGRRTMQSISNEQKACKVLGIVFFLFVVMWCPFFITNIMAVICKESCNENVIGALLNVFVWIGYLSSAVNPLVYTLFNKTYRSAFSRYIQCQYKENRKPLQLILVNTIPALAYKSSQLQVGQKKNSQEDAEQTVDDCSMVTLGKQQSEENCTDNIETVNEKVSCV
- method_description: In Vitro Serotonin (5-HT2) Receptor Binding, [3H]ketanserin
- condition: […], read-out: Serotonin 5-HT2 [3H]ketanserin, value @ 1 μM
measurement_name: inhibition at 1 µM
Could you write the number and then its unit?

Item CN(CCc1ccc(Cl)c(Cl)c1)CCN1C2CCC1c1c([nH]c3ccccc13)C2 (stereo not drawn) has what recorded inhibition at 1 µM?
34.7%

Same read-out for O=C1c2ccccc2C(=O)N1CCN1C2CCC1c1c([nH]c3ccccc13)C2 (stereo not drawn) ?
5.3%

Same read-out for c1ccc2c(c1)CN(CCN1C3CCC1c1c([nH]c4ccccc14)C3)C2 (stereo not drawn) ?
55.1%

Same read-out for Fc1ccc2[nH]c3c(c2c1)C1CCC(C3)N1CCCN1Cc2ccccc2C1 (stereo not drawn) ?
72.2%

Same read-out for O=C1c2ccccc2C(=O)N1CCCN1C2CCC1c1c([nH]c3ccc(F)cc13)C2 (stereo not drawn) ?
4.9%

Same read-out for OCCCN1C2CCC1c1c([nH]c3ccc(F)cc13)C2 (stereo not drawn) ?
5.6%

* * *

Please respond with reported Ki for every item in the list.
- assay_target: dopamine (D-2) receptors (Rattus norvegicus, UniProt P61169)
- Construct: the corpus striatum was dissected and homogenized; from tissue; host or cells: rat corpus striatum membranes
- Sequence (P61169 whole entry): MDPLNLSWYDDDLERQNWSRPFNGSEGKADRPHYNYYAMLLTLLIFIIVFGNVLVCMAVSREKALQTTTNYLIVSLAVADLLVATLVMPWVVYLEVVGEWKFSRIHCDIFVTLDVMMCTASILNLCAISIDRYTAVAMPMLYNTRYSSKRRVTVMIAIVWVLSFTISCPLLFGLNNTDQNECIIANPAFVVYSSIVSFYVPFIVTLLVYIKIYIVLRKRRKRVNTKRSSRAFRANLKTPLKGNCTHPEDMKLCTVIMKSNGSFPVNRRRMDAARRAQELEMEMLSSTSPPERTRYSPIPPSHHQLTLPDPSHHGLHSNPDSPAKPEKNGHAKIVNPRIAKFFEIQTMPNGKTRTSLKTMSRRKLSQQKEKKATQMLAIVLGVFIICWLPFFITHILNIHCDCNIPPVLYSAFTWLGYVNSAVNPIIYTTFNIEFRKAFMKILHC
- method_description: In Vitro Dopamine (D-2) Receptor Binding, [3H]sulpiride
- condition: rat corpus striatum; 3 nM [3H]sulpiride; read-out: Dopamine D-2 [3H]sulpiride Ki

Item O=C1c2ccccc2C(=O)N1CCCN1C2CCC1c1c([nH]c3ccc(F)cc13)C2 (centres unmarked) has what recorded Ki?
12.3 µM

Same read-out for c1ccc(C(CCN2C3CCC2c2c([nH]c4ccccc24)C3)c2ccccc2)cc1 (centres unmarked) ?
4.52 µM

Same read-out for CC(C)n1c2c(c3ccccc31)C1CCC(C2)N1CCCCc1ccccc1 (centres unmarked) ?
2.64 µM

Same read-out for CCCN1C2CCC1c1c([nH]c3ccccc13)C2 (centres unmarked) ?
14.4 µM

Same read-out for Clc1ccc(CCN2C3CCC2c2c([nH]c4ccccc24)C3)cc1Cl (centres unmarked) ?
3.43 µM

Same read-out for c1ccc2c(c1)CN(CCN1C3CCC1c1c([nH]c4ccccc14)C3)C2 (centres unmarked) ?
2.2 µM

Same read-out for c1ccc(CCN2C3CCC2c2c(n(Cc4ccccc4)c4ccccc24)C3)cc1 (centres unmarked) ?
1.62 µM

Same read-out for Fc1ccc(CCCCN2C3CCCC2c2c([nH]c4ccccc24)C3)cc1 (centres unmarked) ?
0.915 µM

Same read-out for C=CCCN1C2CCC1c1c([nH]c3ccccc13)C2 (centres unmarked) ?
0.71 µM

Same read-out for Fc1ccc2[nH]c3c(c2c1)C1CCC(C3)N1Cc1ccccc1I (centres unmarked) ?
531 µM

Same read-out for Fc1ccc2[nH]c3c(c2c1)C1CCC(C3)N1 (centres unmarked) ?
36.6 µM

Same read-out for O=C(CCCN1C2CCCC1c1c([nH]c3ccccc13)C2)c1ccc(F)cc1 (centres unmarked) ?
0.038 µM

Same read-out for O=C(COc1ccc(Cl)c(Cl)c1)N1C2CCC1c1c([nH]c3ccccc13)C2 (centres unmarked) ?
64.5 µM

Same read-out for Clc1ccc(OCCN2C3CCC2c2c([nH]c4ccccc24)C3)cc1Cl (centres unmarked) ?
0.65 µM

* * *

- assay_target: serotonin 5-HT2 receptors (Rattus norvegicus)
- Construct: Rat cortical synaptosomal membranes were prepared on the day of assay; from tissue; host or cells: rat frontal cortex synaptosomal membranes
- method_description: In Vitro Serotonin (5-HT2) Receptor Binding, [3H]ketanserin
- condition: […], read-out: Serotonin 5-HT2 [3H]ketanserin, % @ 1 μM
The class of a record is decided solely by its measured inhibition at 1 µM; consult group 1 (below 10%), group 2 (10% to below 30%), group 3 (30% or more)

Record C(=C\c1ccccc1)/CN1C2CCC1c1c([nH]c3ccccc13)C2 (stereo not shown) — which class?
group 3

Same read-out for CC(C)n1c2c(c3ccccc31)C1CCC(C2)N1CCCCc1ccccc1 (stereo not shown) ?
group 3

Same read-out for O=C(COc1ccc(Cl)c(Cl)c1)N1C2CCC1c1c([nH]c3ccccc13)C2 (stereo not shown) ?
group 2

Same read-out for c1ccc(CN2C3CCC2c2c([nH]c4ccccc24)C3)cc1 (stereo not shown) ?
group 2

Same read-out for Clc1ccc(OCCN2C3CCC2c2c([nH]c4ccccc24)C3)cc1Cl (stereo not shown) ?
group 3

Same read-out for c1ccc(CCN2C3CCC2c2c(n(Cc4ccccc4)c4ccccc24)C3)cc1 (stereo not shown) ?
group 2

Same read-out for Fc1ccc2[nH]c3c(c2c1)C1CCC(C3)N1Cc1ccccc1I (stereo not shown) ?
group 1

Same read-out for O=C1CC2(CCCC2)CC(=O)N1CCCCN1C2CCC1c1c([nH]c3ccccc13)C2 (stereo not shown) [1 H H (CH2)4 [drawing 3] 2] ?
group 2

Same read-out for c1ccc2c3c([nH]c2c1)CC1CCC3N1 (stereo not shown) ?
group 1

Same read-out for Fc1ccc2[nH]c3c(c2c1)C1CCC(C3)N1Cc1ccccc1 (stereo not shown) ?
group 1

Same read-out for Fc1ccc2[nH]c3c(c2c1)C1CCC(C3)N1CCCc1cccnc1 (stereo not shown) ?
group 1

Same read-out for Fc1ccc2[nH]c3c(c2c1)C1CCC(C3)N1 (stereo not shown) ?
group 2

Same read-out for CN1C2CCC1c1c([nH]c3ccccc13)C2 (stereo not shown) ?
group 2

Same read-out for C=CCCN1C2CCC1c1c([nH]c3ccccc13)C2 (stereo not shown) ?
group 2

Same read-out for c1ccc(C(CCN2C3CCC2c2c([nH]c4ccccc24)C3)c2ccccc2)cc1 (stereo not shown) ?
group 2

Same read-out for Clc1ccc(CCN2C3CCC2c2c([nH]c4ccccc24)C3)cc1Cl (stereo not shown) ?
group 1

Same read-out for Cn1c2c(c3ccccc31)C1CCC(C2)N1CCCCc1ccccc1 (stereo not shown) ?
group 3

Same read-out for c1ccc(CCN2C3CCC2c2c([nH]c4ccccc24)C3)cc1 (stereo not shown) ?
group 1

Same read-out for CC(CCc1ccccc1)N1C2CCC1c1c([nH]c3ccccc13)C2 (single isomer, unassigned) ?
group 3

* * *

- assay_target: dopamine (D-2) receptors (Rattus norvegicus)
- Construct: the corpus striatum was dissected and homogenized; from tissue; host or cells: rat corpus striatum membranes
- method_description: In Vitro Dopamine (D-2) Receptor Binding, [3H]sulpiride
- condition: rat corpus striatum; 3 nM [3H]sulpiride; read-out: Dopamine D-2 [3H]sulpiride Ki
measurement_name: pKi
For clarity, pKi is expressed as the negative log10 of concentration in mol/L.

Item Fc1ccc(CCCCN2C3CCCC2c2c([nH]c4ccc(F)cc24)C3)cc1 (stereo not shown) has what recorded pKi?
5.83

Same read-out for CC(CCc1ccccc1)N1C2CCC1c1c([nH]c3ccccc13)C2 (single isomer, unassigned) [1 (high Rf) H H CH(CH3)(CH2)2 Ph 2] ?
5.95

Same read-out for Fc1ccc(C(=CCCN2C3CCCC2c2c([nH]c4ccccc24)C3)c2ccc(F)cc2)cc1 (stereo not shown) ?
5.64

Same read-out for c1ccc(CN2C3CCC2c2c([nH]c4ccccc24)C3)cc1 (stereo not shown) ?
5.44

Same read-out for O=C(CCCN1C2CCC1c1c([nH]c3ccccc13)C2)c1ccc(F)cc1 (stereo not shown) ?
6.55

Same read-out for Clc1ccc(OCCN2C3CCC2c2c([nH]c4ccccc24)C3)cc1 (stereo not shown) ?
6.28

Same read-out for c1ccc(OCCCCN2C3CCC2c2c([nH]c4ccccc24)C3)cc1 (stereo not shown) ?
7.00

* * *

- assay_target: sigma receptor ([3H](+)-3-PPP site) (Cavia porcellus, UniProt Q60492)
- Construct: frozen guinea pig brains; tissue PelFreez Biologicals, Rogers, AK; host or cells: guinea pig brain membranes
- Sequence (Q60492 whole entry): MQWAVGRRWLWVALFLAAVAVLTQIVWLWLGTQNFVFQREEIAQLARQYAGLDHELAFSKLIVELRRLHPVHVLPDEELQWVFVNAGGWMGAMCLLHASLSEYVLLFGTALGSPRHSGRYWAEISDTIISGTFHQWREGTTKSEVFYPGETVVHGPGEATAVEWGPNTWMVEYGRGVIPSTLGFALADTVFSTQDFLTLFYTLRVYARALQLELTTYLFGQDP
- method_description: In Vitro Sigma Receptor Binding, [3H](+)-3-PPP
- Parameters: species or system guinea pig
- condition: Sigma [3H](+)-3-PPP binding IC50, guinea pig brain; 45 minutes at 25° C.
measurement_name: IC50 (nM)
Numeric only. Scale: nM

Item O=C(CCCN1C2CCCC1c1c([nH]c3ccccc13)C2)c1ccc(F)cc1 (stereo not shown) [11 H H (CH2)3 CO 4-FPh 3] has what recorded IC50?
89

* * *

- assay_target: sigma receptor ([3H]DTG site)
- method_description: In Vitro Sigma Receptor Binding, [3H]DTG
- condition: guinea pig brain; 45 minutes at 25° C.
Please respond with reported IC50 for every item in the list.

Item c1ccc(OCCCCN2C3CCC2c2c([nH]c4ccccc24)C3)cc1 (stereo not drawn) [1 H H (CH2)4 OPh 2] has what recorded IC50?
88 nM

Same read-out for Fc1ccc(CCCCN2C3CCCC2c2c([nH]c4ccccc24)C3)cc1 (stereo not drawn) [11 H H (CH2)4 4-FPh 3] ?
64 nM

Same read-out for c1ccc(OCCN2C3CCC2c2c([nH]c4ccccc24)C3)cc1 (stereo not drawn) [1 H H (CH2)2 OPh 2] ?
110 nM

Same read-out for O=C(CCCCN1C2CCC1c1c([nH]c3ccccc13)C2)c1ccc(F)cc1 (stereo not drawn) [1 H H (CH2)4 CO 4-FPh 2] ?
131 nM

Same read-out for c1ccc(OCCCN2C3CCC2c2c([nH]c4ccccc24)C3)cc1 (stereo not drawn) [1 H H (CH2)3 OPh 2] ?
132 nM

Same read-out for CC(CCc1ccccc1)N1C2CCC1c1c([nH]c3ccccc13)C2 (single isomer, unassigned) [1 (low Rf) H H CH(CH3)(CH2)2 Ph 2] ?
119 nM

Same read-out for c1ccc(CCCCCN2C3CCC2c2c([nH]c4ccccc24)C3)cc1 (stereo not drawn) [1 H H (CH2)5 Ph 2] ?
107 nM

Same read-out for Fc1ccc2[nH]c3c(c2c1)C1CCC(C3)N1Cc1ccccc1 (stereo not drawn) [4 F H CH2 Ph 2] ?
86 nM

Same read-out for Fc1ccc(CCCCN2C3CCCC2c2c([nH]c4ccc(F)cc24)C3)cc1 (stereo not drawn) [11 F H (CH2)4 4-FPh 3] ?
61 nM

Entry source: patent US5250537A
